system.tested: FTO (Homo sapiens, UniProt Q9C0B1)
Construct: FTOΔN31 (His-tag human FTO with N-terminal 31 residues truncated)
Sequence (Q9C0B1 32-505): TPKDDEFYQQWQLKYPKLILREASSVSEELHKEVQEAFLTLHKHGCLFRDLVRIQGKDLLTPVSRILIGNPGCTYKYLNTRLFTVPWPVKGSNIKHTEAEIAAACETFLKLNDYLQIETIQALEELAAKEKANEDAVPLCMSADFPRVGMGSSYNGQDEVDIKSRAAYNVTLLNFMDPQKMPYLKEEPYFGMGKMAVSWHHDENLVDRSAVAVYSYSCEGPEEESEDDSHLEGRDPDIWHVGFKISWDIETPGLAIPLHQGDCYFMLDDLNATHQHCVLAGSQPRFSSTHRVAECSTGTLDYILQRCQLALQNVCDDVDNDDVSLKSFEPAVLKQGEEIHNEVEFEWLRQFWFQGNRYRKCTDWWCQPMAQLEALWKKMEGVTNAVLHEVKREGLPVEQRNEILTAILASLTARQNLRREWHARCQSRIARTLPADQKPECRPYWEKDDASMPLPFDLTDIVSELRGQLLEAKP
procedure.details: crystal structure at […] Å; DSF shift; FP displacement (IC50 […]); IC50 from HPLC demethylation assay on ssDNA
Type: biochemical
quantity.name: IC50
Please provide the amount together with its unit, number first.

Sample Cc1ccc(Cl)c(Nc2ccccc2C(=O)O)c1Cl [MA, meclofenamic acid] — what was its IC50?
7 µM
